Measured values drawn from the NIST ThermoML archive (doi:10.1016/j.jct.2016.02.008) for this set.

PROTOCOL DESCRIPTION: Molar enthalpy of transition or fusion
CONDITION CONTEXT: Crystal; DSC
Consider the following compounds; for each one, report its Molar enthalpy of transition or fusion.
Report the value in kcal/mol with no unit label.

### Prompt Request the reported Molar enthalpy of transition or fusion associated with O=C(O)c1cc2ccccc2s1 [benzo[b]thiophene-2-carboxylic acid]
### Response 7.5

### Prompt Then O=C(O)c1cc2ccccc2[nH]1 [indole-2-carboxylic acid] ?
### Response 5.49

### Prompt One more compound: CC(=O)c1cc2ccccc2o1 [2-acetylbenzofuran]
### Response 5.09

### Prompt Here is the next compound: O=C(O)c1cc2ccccc2o1 [benzofuran-2-carboxylic acid]
### Response 6.49

---

PROTOCOL DESCRIPTION: molar heat capacity at constant pressure
CONDITION CONTEXT: 298.15 K; 101.33 kPa; Crystal; Small sample (50 mg) DSC
MEASURE NAME: molar heat capacity at constant pressure (J/K/mol)
Write down the numeric answer in J/K/mol and omit the unit.

### Prompt Returns the measured molar heat capacity at constant pressure for the input compound. Input: "O=C(O)c1cc2ccccc2[nH]1"
### Response 178.4

### Prompt // next record "CC(=O)c1cc2ccccc2o1"
### Response 192.1

### Prompt Further, for "O=C(O)c1cc2ccccc2o1" ?
### Response 184.8

### Prompt Please answer likewise for O=C(O)c1cc2ccccc2s1 [benzo[b]thiophene-2-carboxylic acid]
### Response 179

---

CONDITION CONTEXT: Crystal; DTA
± gives the expanded uncertainty stated by the source.
MEASURE NAME: Normal melting temperature

### Prompt State the recorded Normal melting temperature for this entry: CC(=O)c1cc2ccccc2o1 [2-acetylbenzofuran]
### Response 66 ± 0.9 °C

### Prompt Query O=C(O)c1cc2ccccc2[nH]1 [indole-2-carboxylic acid] next
### Response 210.0 ± 0.8 °C

### Prompt Please give the result for O=C(O)c1cc2ccccc2s1 [benzo[b]thiophene-2-carboxylic acid] too.
### Response 244.6 ± 0.6 °C

### Prompt // repeat for O=C(O)c1cc2ccccc2o1 [benzofuran-2-carboxylic acid] and report
### Response 196.7 ± 0.6 °C
